Biological target: human plasma kallikrein (human, UniProt P03952 20-390; P03952 391-638)
Sequence (P03952 20-390, chain 1 of 2): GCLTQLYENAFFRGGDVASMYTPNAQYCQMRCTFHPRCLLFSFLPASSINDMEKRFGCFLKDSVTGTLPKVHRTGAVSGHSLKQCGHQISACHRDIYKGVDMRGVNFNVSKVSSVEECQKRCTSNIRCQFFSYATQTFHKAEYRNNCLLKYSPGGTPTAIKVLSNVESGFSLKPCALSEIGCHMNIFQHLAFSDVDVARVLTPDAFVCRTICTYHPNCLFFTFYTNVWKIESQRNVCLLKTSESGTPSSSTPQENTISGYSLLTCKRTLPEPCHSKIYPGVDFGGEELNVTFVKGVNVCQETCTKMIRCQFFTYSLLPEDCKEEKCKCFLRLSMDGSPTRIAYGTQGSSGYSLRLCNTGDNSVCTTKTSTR
Sequence (P03952 391-638, chain 2 of 2): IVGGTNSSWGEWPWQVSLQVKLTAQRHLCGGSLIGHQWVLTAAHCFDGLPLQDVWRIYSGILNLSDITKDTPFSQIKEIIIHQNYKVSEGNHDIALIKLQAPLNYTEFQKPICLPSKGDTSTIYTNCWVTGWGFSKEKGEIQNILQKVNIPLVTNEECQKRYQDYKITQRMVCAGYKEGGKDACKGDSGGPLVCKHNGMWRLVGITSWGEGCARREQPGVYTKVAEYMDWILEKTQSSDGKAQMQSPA
Experiment: cell-based or functional assay
quantity.kind: % inhibition at 10 nM (%)

M197-F03 (Fab, V domains shown) VH: EVQLLESGGGLVQPGGSLRLSCAASGFTFSIYSMFWVRQAPGKGLEWVSSIGPSGGVTHYADSVKGRFTISRDNSKNTLYLQMNSLRAEDTAVYYCAYRRTGIPRRDAFDIWGQGTMVTVSS VL: DIQMTQSPSTLSASVGDRVTITCRASQSISSWLAWYQQKPGKAPNLLIYKASTLESGVPSRFSGSGSGTEFTLTISSLQPDDFATYYCQQYNTYWTFGQGTKVEIK	90.7
M198-F12 (Fab, V domains shown) VH: EVQLLESGGGLVQPGGSLRLSCAASGFTFSIYTMMWVRQAPGKGLEWVSSIWSSGGQTKYADSVKGRFTISRDNSKNTLYLQMNSLRAEDTAVYYCAYRRTGIPRRDAFDIWGQGTMVTVSS VL: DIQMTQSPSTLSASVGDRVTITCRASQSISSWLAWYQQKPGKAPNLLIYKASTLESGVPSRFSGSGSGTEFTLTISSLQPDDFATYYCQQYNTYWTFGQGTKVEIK	74.6
M195-F12 (Fab, V domains shown) VH: EVQLLESGGGLVQPGGSLRLSCAASGFTFSHYVMMWVRQAPGKGLEWVSYIVPSGGVTAYADSVKGRFTISRDNSKNTLYLQMNSLRAEDTAVYYCAYRRTGIPRRDAFDIWGQGTMVTVSS VL: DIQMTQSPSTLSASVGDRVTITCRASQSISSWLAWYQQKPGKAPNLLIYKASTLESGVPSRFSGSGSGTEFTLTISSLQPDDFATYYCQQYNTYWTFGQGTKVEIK	45.5
